These molecules were tested on NCI/ADR-RES ovarian; GI50 is the recorded read-out.
Measured quantity: GI50

CCN(CC)CCOc1ccc(/C(=C(\C)Cc2ccc(OC)cc2)c2ccc(OC(=O)NCc3ccccc3)cc2)cc1: 3.18 µM
CCCCCCCC/C=C/CCCCCCCC1=NC(C)(C)CN1C(C)C: 1.54 µM
COc1cc(C#N)cc(OC)c1OCCOCCOc1c(OC)cc(C#N)cc1OC: 24.8 µM
Cn1ncc2c(/N=C/c3cccs3)[nH]c(=S)nc21: > 100 µM
CCOC(=O)c1c(-c2ccccc2)[n+](=O)c2ccc(Cl)cc2n1[O-]: 5.27 µM
CN(C)CCCN(c1nc(C(Cl)(Cl)Cl)ns1)c1nc(C(Cl)(Cl)Cl)ns1: 1.89 µM
C=C1C(=O)O[C@H]2[C@H]1CC/C(COC(=O)CCCCCCCCC(=O)OC/C1=C/CC[C@@]3(C)O[C@H]3[C@H]3OC(=O)C(=C)[C@@H]3CC1)=C\CC[C@@]1(C)O[C@@H]21: 3.14 µM
O=C1OCc2c1cc(F)cc2[N+](=O)[O-]: > 100 µM
Cc1cccc2c(N=Nc3ccc(S(N)(=O)=O)cc3)c(O)[nH]c12: > 25 µM

---

# System: MDA-MB-231 breast
Non-standard residues stand in square brackets, D forms with d. Residues, ends and D or L forms follow the SMILES beside them. ξ: configuration not given here. *: point of attachment. Boc = CC(C)(C)OC(=O)*; ξV = CC(C)C(N)C(=O)O; OBn = c1ccc(CO*)cc1
Outcome codes: active, inactive

CC(C)C(NC(=O)OC(C)(C)C)C(=O)NCC(=O)OCc1ccccc1 (centres undefined) (Boc-[ξV]-Gly-OBn): inactive
COc1ccc(N(CC(=O)NCCC[Te]c2ccccc2)C(=O)CCSC2=C(C)C(=O)c3ccccc3C2=O)cc1: inactive
C#CCN=C(N/N=C/c1ccc([N+](=O)[O-])o1)NS(=O)(=O)c1cc(C)c(Cl)cc1SCC(N)=O: inactive
Clc1cc(Cl)c(Cl)c(-c2nc(-c3cccnc3)cs2)c1: inactive
CCOC(=O)c1ccc(N(CCOS(C)(=O)=O)CCOS(C)(=O)=O)cc1C: inactive
ClCc1ccc(-c2ccc(Cn3cnc4c(Cl)nc(Cl)nc43)cc2)cc1: inactive
COc1cc(C#N)cc(OC)c1OCCOCCOc1c(OC)cc(C#N)cc1OC: inactive
CCCc1cc2cc(-n3nc(C)c4c3CC(C)(C)CC4=O)cc(NC3CCC(O)CC3)c2c(=O)[nH]1 (centres undefined): active
O=C(Nc1ccccc1)Nc1cccc(-n2cc(-c3ccncc3)c(-c3ccc(O)c(Cl)c3)n2)c1: inactive

---

# Test system: HCC-2998 colon
Classes used: active, inactive

COc1cc(/C=C/C(=O)c2ccc(Nc3ncnc4ccccc34)cc2)cc(OC)c1: inactive
CN(C)CCCN(c1nc(C(Cl)(Cl)Cl)ns1)c1nc(C(Cl)(Cl)Cl)ns1: inactive
Cc1cccc2c(N=Nc3ccc(S(N)(=O)=O)cc3)c(O)[nH]c12: inactive
O=C1OCc2c1cc(F)cc2[N+](=O)[O-]: inactive
CCOC(=O)c1c(C)nc2ccc(Cl)cc2c1-c1ccccc1: inactive
O=C1c2cc3c(cc2-c2c1c1ccc(Cl)cc1c(=O)n2C[C@H](O)[C@@H](O)[C@H](O)CO)OCO3: active
O=C(Nc1nccs1)c1cc2c(cc1Cl)Sc1nccn1S2(=O)=O: inactive
C/C(=N\NC(=O)c1cccnc1)c1cccc(/C(C)=N/NC(=O)c2cccnc2)n1: inactive
O=C(Nc1n[nH]c2nc(-c3ccco3)ccc12)C1CC1: inactive
NC1=C(Cl)C(=O)c2ccc(S(N)(=O)=O)cc2C1=O: inactive
COc1ccc(/C(C)=C(\c2ccc(Cl)cc2)c2ccc(OCCN3CCCC3)cc2)cc1F: inactive
O=C(Nc1ccccc1)Nc1cccc(-n2cc(-c3ccncc3)c(-c3ccc(O)c(Cl)c3)n2)c1: inactive
c1cc(OCCN2CCCCCC2)ccc1CNc1ccc2nc(CCC3CCCCC3)[nH]c2c1: inactive
COc1ccc(/C=C2\CN(Cc3cn(CCCNc4ccnc5cc(Cl)ccc45)nn3)C/C(=C\c3ccc(OC)c(OC)c3)C2=O)cc1OC: inactive
COC(=O)C(C)NP(=O)(OCc1ccc(Cn2cnc3c(=O)[nH]c(N)nc32)cc1)Oc1ccccc1 (stereo unspecified): inactive
Cc1c2c(nn1C(=O)c1nn(-c3ccc(Cl)cc3)cc1O)-c1ccccc1CC2: active

---

A collection of compounds and their measured TGI
# Tested on: U251 CNS
# Experiment description: NCI tumour cell line growth inhibition, 48 h
Measured quantity: TGI (µM)

CCOC(=O)c1c(-c2ccccc2)[n+](=O)c2ccc(Cl)cc2n1[O-]: 8.57
O=C(/C=C\c1cccc2ccccc12)c1cccs1: 16.5
COc1ccc(/C=C(\C#N)c2nc(N)nc(N3N=C(C)CC3(C)C)n2)c(O)c1: 94.1
Cc1c(C(=O)CC(=O)C(=O)Nc2ccc(Cl)c(Cl)c2)[n+](=O)c2ccccc2n1[O-]: 72.3

---

# Tested on: CCRF-CEM leukemia
# Experiment description: NCI tumour cell line growth inhibition, 48 h
Measured quantity: TGI

C/C(CC(=O)NNc1ccc([N+](=O)[O-])cc1)=N\Nc1ccc([N+](=O)[O-])cc1: > 100 µM
CN=C1Nc2ccc(Cl)cc2C(c2ccccc2)=NN1C: > 100 µM
O=C(Cn1cc(-c2ccccc2)nn1)NC1CCCC1: > 100 µM
Cc1c(C(=O)CC(=O)C(=O)Nc2ccc(Cl)c(Cl)c2)[n+](=O)c2ccccc2n1[O-]: 43 µM
c1ccc(C2C3=C(CCCC3)Nc3nc4cc5ccccc5cc4n32)cc1 (stereo unspecified): > 100 µM
O=C(/C=C\c1cccc2ccccc12)c1cccs1: 7.83 µM
O=C1c2cccnc2S(=O)N1Cc1ccccc1 (stereo unspecified): > 100 µM
O=S(=O)(N=S(c1ccc(Cl)cc1)c1ccc(Cl)cc1)c1ccccc1: > 100 µM
COC1O[C@@H]2CCN3C(=O)[C@@H](OC(=O)c4ccc([N+](=O)[O-])cc4)[C@H]1C23 (stereo partly specified): > 100 µM
Nc1nc(N)c2c(n1)NC(c1ccccc1)CC(/C=C/c1ccc(Cl)cc1)=N2 (stereo unspecified): 50.4 µM
C[C@@H](CO)OCOCc1ccccc1: > 100 µM

---

Each entry below carries its recorded TGI.
# Tested on: HCC-2998 colon
# Experiment description: NCI tumour cell line growth inhibition, 48 h
Measured quantity: TGI

S=c1nc2[nH]ncc2c(N/N=C/c2ccccc2)[nH]1: > 100 µM
CC(Sc1ccccc1)C(CO)(CO)[N+](=O)[O-] (centres undefined): 31.5 µM
COc1cc2ccc3c4c(OC)cc(OC)c(OC)c4c(=O)n(C)c3c2cc1OC: > 36.1 µM
Cc1c2c(nn1C(=O)c1nn(-c3ccc(Cl)cc3)cc1O)-c1ccccc1CC2: > 100 µM

---

Listing of entries alongside the reported TGI.
# System: M19-MEL melanoma
# Experiment description: NCI tumour cell line growth inhibition, 48 h
Measured quantity: TGI

N=C1N(c2ccccc2)C(=O)C23CCCC2C13N1CCOCC1 (stereo unspecified): > 100 µM
CC(=O)Nc1ccc(C(=O)NN2C(=O)C(Cl)C2c2cc(Br)ccc2O)cc1 (stereo unspecified): 33.7 µM
ClC1CCC2OOC1O2 (stereo unspecified): > 100 µM
O=C(NCc1ccccc1)c1cc2cc(O)c(O)cc2cn1: 77.3 µM
O=C1CCCC2=C(N1)C(=O)C=CC2=O: > 100 µM
COC(=O)C(=O)C(C(=O)C(=O)Nc1ccc(Cl)cc1C)c1nc2ccc(C(=O)c3ccccc3)cc2[nH]c1=O (stereo unspecified): > 100 µM
CC(=O)OCc1cc(OC(C)=O)cnc1COC(C)=O: > 100 µM
CNNCc1ccc(C(=O)NC(C)C)cc1: > 500 µM
CC(=O)N(C)c1ccc2c(ccc[n+]2[O-])c1[N+](=O)[O-]: > 100 µM
COC(=O)C1C(C)N1C (stereo unspecified): > 100 µM
CC(=O)NC(CCCCNC(=O)N(CCCl)N=O)C(=O)NCc1ccccc1 (stereo unspecified): > 100 µM
C=CCNC(=S)N1c2ccccc2NC(=O)CC1C (stereo unspecified): > 100 µM
CC(=O)O[C@H]1C(=O)O[C@@H]2C[C@H]3C(C)=CC(=O)[C@@H](O)[C@]3(C)[C@H]3[C@@]4(O)OC[C@]32[C@@H]1[C@@H](C)[C@H]4O: 0.072 µM
CCOc1ccccc1N=Nc1c(-c2ccccc2)nn(C(=O)CC(=O)Nc2cccc(Cl)c2)c1-c1ccccc1: > 100 µM
CC(Sc1ccccc1)C(CO)(CO)[N+](=O)[O-] (stereo unspecified): 30.9 µM
C[C@]12CC[C@@H]3c4ccccc4CC[C@H]3[C@@H]1CC[C@@H]2O: > 100 µM
